I'd appreciate it if you could supply GI50 values for the items below.
Test system: HOP-92 NSCLC
Protocol: NCI tumour cell line growth inhibition, 48 h

I need GI50 for every entry listed below, if you could help.
1. O=C1Nc2cc(Cl)ccc2/C1=C\c1c(-c2ccc(F)cc2)nc2ccccn12
2. COc1ccc2[nH]c(-c3ccccc3)c(/C=C(\C#N)S(=O)(=O)c3ccccc3)c2c1
3. Nc1nc2c(c3ncccc13)C(c1cccc(Br)c1)Cc1ncccc1-2 (stereo not drawn)

["4.42 µM", "6.05 µM", "0.95 µM"]

---

Test system: UACC-257 melanoma
Protocol: NCI tumour cell line growth inhibition, 48 h
*1 amine or outer side, *2 acyl side, *3 side chain or, on linkers, in order; H or OH if unused. Where a SMILES comes first, the peptide text is derived from it. Bridges are numbered along the chain shown (N, C = ends). [ ]: non-standard residue; d: D form. Adda = CO[C@@H](Cc1ccccc1)[C@@H](C)/C=C(C)/C=C/[C@H](N[*:1])[C@H](C)C(=O)[*:2]; dAsp(3S-Me) = C[C@H](C(=O)[*:3])[C@@H](N[*:1])C(=O)[*:2]; d(γGlu) = O=C(O)[C@@H](CCC(=O)[*:2])N[*:1]; NMeDha = C=C(NC)C(=O)O
Parameter measured: TGI

Field: example entries. Status: answers known.
- Compound: "CCCc1onc(CCC(=O)N(Cc2ccccc2)Cc2ccccc2)c1CC"
  TGI: "> 100 µM"
- Compound: "O=P(O)(NCCCl)NCCCl"
  TGI: "> 100 µM"
- Compound: "CCc1cccc(C)c1NC(=O)C1=C(C)NC(C)=C(C(=O)Nc2c(C)cccc2CC)C1c1ccc([N+](=O)[O-])cc1"
  TGI: "> 100 µM"
- Compound: "COc1cc(C[C@@H](C)N)cc(OC)c1"
  TGI: "> 100 µM"

I need TGI for every entry listed below, if you could help.
1. c1ccc2c(c1)nc1n2sc2nc3ccccc3n21
2. [Cl-].[Cl-].[Cl-].[O-]c1cccc2cccnc12.[O-]c1cccc2cccnc12.[O]=[Mo]
3. C=C1C(=O)N[C@H](C)C(=O)N[C@@H](CC(C)C)C(=O)N[C@@H](C(=O)O)[C@H](C)C(=O)N[C@@H](CCCN=C(N)N)C(=O)N[C@@H](/C=C/C(C)=C/[C@H](C)[C@H](Cc2ccccc2)OC)[C@H](C)C(=O)N[C@@H](C(=O)O)CCC(=O)N1C (R[Adda][d(γGlu)][NMeDha][dA]L[dAsp(3S-Me)]-OH; lactam N-7)

["> 100 µM", "6.69 µM", "> 5 µM"]
